# credit: ChEMBL document CHEMBL5154739

Tested on: P-gp
Experiment: Substrate activity at P-gp in dog MDCK cells assessed as apparent permeability across apical to basolateral membrane
Format: ADME, cell-based, Canis lupus familiaris
Settings: MDCK-MDR1
MEASUREMENT_LABEL: Papp A→B (×10⁻⁶ cm/s)
API: value field is a number in ×10⁻⁶ cm/s; no unit string.

C=CC(=O)NCCCC[C@H](NC(=O)Cc1ccccc1F)C(=O)N1CCN(C(=O)c2cccc3ccccc23)CC1	2.2

Quick one: Papp A→B for C=CC(=O)NCCCC[C@H](NC(=O)Cc1ccccc1C)C(=O)N1CCN(C(=O)c2cccc3ccccc23)CC1 ?
3.2

---

Assay: Plasma protein binding (unknown origin)
Assay type: ADME, cell-free
Settings: read-out: PPB (converted)
// fraction unbound lookup, one value per entry
Please give the numeric answer without any surrounding text.

C=CC(=O)NCCCC[C@H](NC(=O)Cc1ccccc1F)C(=O)N1CCN(C(=O)c2cccc3ccccc23)CC1	0.16

Quick one: fraction unbound for C=CC(=O)NCCCC[C@H](NC(=O)Cc1ccccc1C)C(=O)N1CCN(C(=O)c2cccc3ccccc23)CC1 ?
0.15
